biological target: cGMP-PDE (Sus scrofa, UniProt A0A287B475)
Where a name gives a salt, the structure may show the parent alone.
valueType: IC50 (nM)

// solved cases for IC50 follow
COc1ccc(CNc2nnc(N3CCC(C(=O)O)CC3)c3ccc(Cl)cc23)cc1Cl ... 0.37
COc1ccc(CNc2nnc(N3CCC(O)CC3)c3ccc([N+](=O)[O-])cc23)cc1Cl [Example 51, hydrochloride] ... 0.052
COc1ccc(CNc2nnc(N3CCC(CO)CC3)c3ccc(C#N)cc23)cc1Cl.Cl [Example 6, hydrochloride] ... 0.015
COc1ccc(CNc2nnc(N3CCC(CCO)CC3)c3ccc([N+](=O)[O-])cc23)cc1Cl.Cl [Example 53, hydrochloride] ... 0.23

(a) COc1ccc(CNc2nnc(N3CCC(O)CC3)c3ccc(Cl)cc23)cc1Cl.Cl [Example 32, hydrochloride]
(b) COc1ccc(CNc2nnc(N3CCC(CCO)CC3)c3ccc(C#N)cc23)cc1Cl.Cl [Example 8, hydrochloride]
a or b : whose IC50 is greater? To answer, give the label that identifies your chosen option.
a
(a: 4.4 nM, b: 0.03 nM)

(I) COc1ccc(CNc2nnc(Cl)c3ccc(C#N)cc23)cc1Cl
(II) COc1ccc(CNc2nnc(NCc3ccccn3)c3ccc(C#N)cc23)cc1Cl [Example 11, dihydrochloride]
Hi there, can you help? I need to know whether I or II has lower measured IC50. To answer, give the label that identifies your chosen option.
II
(II: 0.11 nM, I: 1.7 nM)

(A) CCOC(=O)C1CCN(c2nnc(NCc3ccc(OC)c(Cl)c3)c3cc([N+](=O)[O-])ccc23)CC1
(B) COc1ccc(CNc2nnc(N3CCC(O)CC3)c3ccc(C#N)cc23)cc1Cl [Example 4, hydrochloride]
Hi there, can you help? I need to know whether A or B has lower measured IC50. To answer, give the label that identifies your chosen option.
B
(B: 0.18 nM, A: 4.59 nM)

(P) COc1ccc(CNc2nnc(N3CCC(=O)CC3)c3ccc(C#N)cc23)cc1Cl.Cl [Example 19, hydrochloride]
(Q) COc1ccc(CNc2nnc(N(C)CCCC(=O)O)c3ccc(Cl)cc23)cc1Cl
Hi there, can you help? I need to know whether P or Q has lower measured IC50. To answer, give the label that identifies your chosen option.
P
(P: 0.53 nM, Q: 2.1 nM)
